# System: HaCat
# Assay Details: Cytotoxic Profiling of Annotated Libraries Using Quantitative High-Throughput Screening (AID 1296008); further: on the % scale 0 is the no-effect control and ±100 the full control effect; nearly all actives have a fitted effect of over 60% in size
# Condition Context: Five cell lines viability, CellTiter-Glo ATP luminescence, 48-72 h; hits give low values
Records with an inconclusive call do not appear.
Exercise: state measured max response for each of the compounds provided.
Expressed in %, but write only the number.

Enquiry: Supply recorded max response for CC(C)C(N)C(=O)OCCOCn1cnc2c(=O)[nH]c(N)nc21 (stereo not given) here.
Return: -13.5

Enquiry: Supply recorded max response for CC1(C)CCCC2(C)C1CC=C1C(=O)OC(O)C12O (stereo not given) here.
Return: 3.25

Enquiry: Supply recorded max response for Cc1ccc(F)cc1C(=O)Nc1ccc(C(=O)N2Cc3cccn3Cc3ccccc32)c(Cl)c1 here.
Return: -26.5

Enquiry: Supply recorded max response for C/C1=C\C[C@]2(C)C(=O)C(O)=C([C@H](C)CO)[C@H]2C/C=C(\C)[C@@H](O)CC/C(C)=C/CC1 here.
Return: 0.087

Enquiry: Supply recorded max response for C=C1C(OC(C)=O)CCC2(C)CC3(OC)OC(=O)C(C)=C3CC12 (stereo not given) here.
Return: -0.749

Enquiry: Supply recorded max response for C/C=C/C=C/[C@@H]1O[C@](O)([C@H](CC)C(=O)NC/C=C/C=C(\C)[C@@H](OC)[C@@H](C)C2OC(/C=C/C=C/C=C(\C)C(=O)c3c(O)cc[nH]c3=O)[C@H](O)[C@@H]2O)[C@H](O)[C@H](O)C1(C)C (stereo not given in full) here.
Return: -11.5

Enquiry: Supply recorded max response for CC1=C(C)C(=O)OC(C(C)C2CCC3C4C5OC5C5(O)CC(OC6OC(CO)C(OC7OC(C)C(O)C(O)C7O)C(O)C6O)CC(O)C5(C)C4CCC23C)C1 (stereo not given) here.
Return: 4.81

Enquiry: Supply recorded max response for COc1ccc([C@@]2(O)c3c(ccc4c3OC(C)(CCC=C(C)C)C=C4)NC(=O)[C@@H]2OC)cc1 (stereo not given in full) here.
Return: 1.02

Enquiry: Supply recorded max response for COc1cc(O)cc(/C=C/c2ccc(O[C@@H]3O[C@H](CO)[C@@H](O)[C@H](O)[C@H]3O)cc2)c1 here.
Return: 0.534

Enquiry: Supply recorded max response for O=C(NOCC(O)CO)c1ccc(F)c(F)c1Nc1ccc(I)cc1F (stereo not given) here.
Return: -79.3

Enquiry: Supply recorded max response for CC1(O)CCCC2(C)C1CCC13CC(CO)C(CCC12)C3 (stereo not given) here.
Return: 2.13

Enquiry: Supply recorded max response for CN[C@@H]1[C@H](O[C@H]2[C@H](O[C@@H]3[C@@H](O)[C@H](O)[C@@H](N=C(N)N)[C@H](O)[C@H]3N=C(N)N)O[C@@H](C)[C@]2(O)C=O)O[C@@H](CO)[C@H](O)[C@H]1O here.
Return: -17.2

Enquiry: Supply recorded max response for CC(=O)OC1C[C@@]2(C)[C@@H](CC[C@@H](C)[C@]23Cc2c(O)cc4c(c2O3)CNC4=O)C(C)(C)[C@@H]1O (stereo not given in full) here.
Return: 4.03

Enquiry: Supply recorded max response for CC1(C)CCC2(C(=O)OC3OC(CO)C(O)C(O)C3O)CCC3(C)C(=CCC4C5(C)CCC(OC6OC(C(=O)O)C(OC7OC(CO)C(O)C(O)C7O)C(OC7OC(CO)C(O)C(O)C7O)C6O)C(C)(C)C5CCC43C)C2C1 (stereo not given) here.
Return: 0.399

Enquiry: Supply recorded max response for Cc1cc(C(N)=O)ccc1-n1c(CCC(=O)O)ccc1-c1ccc(-n2ccnc2)cc1 here.
Return: -1.63

====

# Assay Details: Primary qHTS for inhibitors of nuclear receptor binding SET domain protein 2 (NSD2) in an RCH-ACV wild type WT cells (2C) (AID 1645877); further: nearly all actives have a fitted effect of over 70% in size
# Condition Context: RCH-ACV (leukaemia line) NSD2 WT (2C) viability, CellTiter-Glo, 72 h; series mostly up to 44.9 µM
Records with an inconclusive call do not appear. The source made the active and inactive calls. The call rests on the fitted dose curve; in most records, active means well fitted inhibition curve with a large enough effect; inconclusive means small, poorly fitted or top-dose-only effect; inactive means no such curve, though single readings can be large or run the other way.
Tick one outcome: active, inactive

Enquiry: Short answer needed: outcome of this test for Cc1cc(C)nc(NS(=O)(=O)c2ccc(NC(=S)NC(=O)COc3ccc(Br)cc3Cl)cc2)n1 ?
Return: inactive

Enquiry: Short answer needed: outcome of this test for CC/C=C\CCO[C@@H]1O[C@H](CO)[C@@H](O)[C@H](O)[C@H]1O ?
Return: inactive

Enquiry: Short answer needed: outcome of this test for CN(C)CC1CCOC1(c1ccccc1)c1ccccc1 (configuration not stated) ?
Return: inactive

Enquiry: Short answer needed: outcome of this test for CC(=O)N1CCc2ccc(O)c(OC3OC(COC4OCC(O)(CO)C4O)C(O)C(O)C3O)c2C1Cc1ccc(O)cc1 (configuration not stated) ?
Return: inactive

Enquiry: Short answer needed: outcome of this test for OCC(CO[C@@H]1O[C@H](CO)[C@@H](O)[C@H](O)[C@H]1O)c1ccc2c(c1)OCO2 (some centres not stated) ?
Return: inactive

Enquiry: Short answer needed: outcome of this test for COc1ccc(F)cc1-c1cc(NC(=O)[C@@H]2CCCNC2)ncc1Cl ?
Return: active

Enquiry: Short answer needed: outcome of this test for C[C@@H]1CC[C@]2(C(=O)O[C@@H]3O[C@H](CO)[C@@H](O)[C@H](O)[C@H]3O)CC[C@]3(C)C(=CCC4[C@@]5(C)C[C@@H](O)[C@H](O)[C@](C)(C(=O)O)C5CC[C@]43C)[C@@H]2[C@]1(C)O (some centres not stated) ?
Return: inactive

Enquiry: Short answer needed: outcome of this test for CC(O)/C=C/C1C(C)C(O[C@@H]2O[C@H](CO)[C@@H](O)[C@H](O)[C@H]2O)C(O)CC1(C)C (some centres not stated) ?
Return: inactive

Enquiry: Short answer needed: outcome of this test for CC(O)CO[C@@H]1O[C@H](CO)[C@@H](O)[C@H](O)[C@H]1O (some centres not stated) ?
Return: inactive

Enquiry: Short answer needed: outcome of this test for CC1(C)C=CN2C(=O)C3=CCCN3C(=O)[C@@H]2C[C@@]12Nc1ccccc1C2=O ?
Return: inactive

Enquiry: Short answer needed: outcome of this test for CC(=O)SCC(=O)c1ccc(NS(=O)(=O)c2ccc(OCCCN(C)C)cc2)nc1 ?
Return: active

Enquiry: Short answer needed: outcome of this test for C[C@@]12C[C@]3(O)O[C@H](O1)[C@]1(COC(=O)c4ccccc4)[C@H]3C[C@@]12O[C@@H]1O[C@H](CO)[C@@H](O)[C@H](O)[C@H]1O ?
Return: inactive

Enquiry: Short answer needed: outcome of this test for CO/N=C(/C(=O)N[C@@H]1C(=O)N2C(C(=O)O)=C(Cn3ccc(=N)n3CCO)CS[C@H]12)c1csc(N)n1 ?
Return: inactive

Enquiry: Short answer needed: outcome of this test for COc1c2c(cc3c1-c1c(cc4c(c1OC)OCO4)CC(C)C(C)C3)OCO2 (configuration not stated) ?
Return: inactive

Enquiry: Short answer needed: outcome of this test for COc1ccc([C@H]2CNC(=O)C2)cc1OC1CCCC1 ?
Return: inactive

Enquiry: Short answer needed: outcome of this test for COc1cccc(C(=O)N2CCN(C(=O)COc3cccc(C)c3)CC2)c1OC ?
Return: inactive

Enquiry: Short answer needed: outcome of this test for CNC(=O)c1ccccc1Nc1nc(Nc2ccc3c(c2OC)CCC[C@@H](N2CCN(CCO)CC2)C3)ncc1Cl ?
Return: active

====

# Test system: HEK293
# Assay Details: Cytotoxic Profiling of Annotated Libraries Using Quantitative High-Throughput Screening (AID 1296008); further: on the % scale 0 is the no-effect control and ±100 the full control effect; nearly all actives have a fitted effect of over 60% in size
# Condition Context: Five cell lines viability, CellTiter-Glo ATP luminescence, 48-72 h; hits give low values
Results filed as inconclusive are left out. Active and inactive are the calls of the source. Calls come from the whole dose curve; as a rule, active = well fitted inhibition curve with a large enough effect; inconclusive = small, poorly fitted or top-dose-only effect; inactive = flat fitted curve, though single readings scatter.
Exercise: state measured max response for each of the compounds provided.

Enquiry: Supply recorded max response for CCC1C(=O)OC23C=C[C@@H]4C(C(=O)O)=CO[C@H](O[C@@H]12)[C@@H]43 (some centres undefined) here.
Return: -24.7% (inactive)

Enquiry: Supply recorded max response for O=C1NC2CCc3nc4ccccc4c(=O)n3C2=Nc2ccccc21 (centres undefined) here.
Return: -3.35% (inactive)

Enquiry: Supply recorded max response for CCC[C@@H]1O[C@@H]2C[C@H]3[C@@H]4CCC5=CC(=O)C=C[C@]5(C)[C@H]4[C@@H](O)C[C@]3(C)[C@]2(C(=O)CO)O1 here.
Return: 0.791% (inactive)

Enquiry: Supply recorded max response for COc1cc([C@H]2c3cc(O)c(OC)cc3C[C@@H](CO[C@@H]3O[C@H](CO)[C@@H](O)[C@H](O)[C@H]3O)[C@@H]2CO)ccc1O here.
Return: -2.47% (inactive)

Enquiry: Supply recorded max response for CC1(C)CCCC2(C)C1CC(=O)C13CC(CCC12)C(O)(CO)C3 (centres undefined) here.
Return: 0.204% (inactive)

Enquiry: Supply recorded max response for CS(=O)(=O)N(CC(=O)NCC1CC1)c1cc(C(F)(F)F)ccc1Cl here.
Return: 0.809% (inactive)

Enquiry: Supply recorded max response for C[C@@H]1C(=O)O[C@H]2[C@H](O)C34[C@H]5C[C@@H](C(C)(C)C)C36[C@@H](OC(=O)[C@@H]6O)O[C@@]4(C(=O)O5)[C@@]12O (some centres undefined) here.
Return: -1.33% (inactive)

Enquiry: Supply recorded max response for OC[C@H]1O[C@@H](OC[C@H]2O[C@@H](OC/C=C/c3ccccc3)[C@H](O)[C@@H](O)[C@@H]2O)[C@@H](O)[C@@H]1O here.
Return: 4.4% (inactive)

Enquiry: Supply recorded max response for Cc1noc(=O)c2ccc(NC(=O)C(O)(CC(C)(C)c3cccc4c3OCC4)C(F)(F)F)cc12 (centres undefined) here.
Return: -10.8% (inactive)

Enquiry: Supply recorded max response for C/C=C(\C)C(=O)O[C@@H]1CC2[C@@H](CC=C3C[C@@H](O[C@H]4C[C@H](OC)[C@H](O[C@H]5C[C@H](OC)[C@H](O[C@@H]6O[C@H](C)[C@@H](O[C@H]7C[C@H](OC)[C@H](O[C@@H]8O[C@H](CO)[C@@H](O)[C@H](O)[C@H]8O)[C@@H](C)O7)[C@H](OC)[C@H]6O)[C@@H](C)O5)[C@@H](C)O4)CC[C@@]32C)[C@@]2(O)CC[C@H](C(C)=O)[C@@]12C (some centres undefined) here.
Return: -3.44% (inactive)

Enquiry: Supply recorded max response for Nc1nc2c(ncn2[C@@H]2O[C@H](CO)[C@@H](O)[C@H]2O)c(=O)[nH]1 here.
Return: -9.89% (inactive)

Enquiry: Supply recorded max response for C/C1=C\C[C@]2(C)C(=O)C(O)=C([C@H](C)CO)[C@H]2C/C=C(\C)[C@@H](O)CC/C(C)=C/CC1 here.
Return: 2.1% (inactive)

Enquiry: Supply recorded max response for Cc1nc2sc(C(=O)NCc3ccncc3)c(N)c2c(C)c1Cl here.
Return: -2.15% (inactive)

Enquiry: Supply recorded max response for COC1C(CO)OC(n2cnc3c(=O)[nH]cnc32)C1O (centres undefined) here.
Return: 0.852% (inactive)

Enquiry: Supply recorded max response for O=C(OC[C@@]1(O)CO[C@@H](O[C@H]2[C@H](Oc3ccc(O)cc3)O[C@H](CO)[C@@H](O)[C@@H]2O)[C@@H]1O)c1ccc(O)cc1 here.
Return: -7.32% (inactive)

Enquiry: Supply recorded max response for CC(=O)O[C@]1(C(C)=O)CC[C@H]2[C@@H]3C[C@H](C)C4=CC(=O)C=C[C@]4(C)[C@@]3(F)[C@@H](O)C[C@@]21C here.
Return: -1.51% (inactive)

Enquiry: Supply recorded max response for C=C(C(=O)O)[C@H]1C[C@]2(C)[C@@H](O)CC[C@]23O[C@H]1C[C@@H]3C here.
Return: -6.98% (inactive)

Enquiry: Supply recorded max response for CC(CCC1(O)OC2CC3C4CCC5CC(O[C@@H]6O[C@H](CO)[C@@H](O)[C@H](O)[C@H]6O[C@@H]6O[C@@H](C)[C@H](O)[C@@H](O)[C@H]6O)C(O)CC5(C)C4CCC3(C)C2C1C)CO[C@@H]1O[C@H](CO)[C@@H](O)[C@H](O)[C@H]1O (some centres undefined) here.
Return: 0.184% (inactive)

Enquiry: Supply recorded max response for CC1=C(C)C(=O)OC(C(C)C2CCC3C4C5OC5C5(O)CC(OC6OC(CO)C(OC7OC(C)C(O)C(O)C7O)C(O)C6O)CC(O)C5(C)C4CCC23C)C1 (centres undefined) here.
Return: -0.932% (inactive)

Enquiry: Supply recorded max response for CC(C)[C@H]1CC[C@@]2(O)COC(=O)[C@H]2[C@@H]1/C=C(\CO)C(=O)O here.
Return: 2.97% (inactive)

Enquiry: Supply recorded max response for C/C1=C\CC[C@H](C)CCO[C@@H]2O[C@H](CO[C@@H]3OC[C@](O)(COC1=O)[C@H]3O)[C@@H](O)[C@H](O)[C@H]2O here.
Return: -0.349% (inactive)

Enquiry: Supply recorded max response for CC1C(=O)OCC2=CCN3CCC(OC(=O)C(C)(O)C1(C)O)C23 (centres undefined) here.
Return: -9.35% (inactive)

Enquiry: Supply recorded max response for CC(C)CC1NC(=O)C2CC3(O)c4ccccc4NC3N2C1=O (centres undefined) here.
Return: 2.06% (inactive)

Enquiry: Supply recorded max response for CCNCc1nc2c(N)nc3ccccc3c2n1CC(C)(C)O here.
Return: -9.18% (inactive)

Enquiry: Supply recorded max response for CC(C)C(C#N)O[C@@H]1O[C@H](CO[C@@H]2O[C@@H](C)[C@H](O)[C@@H](O)[C@H]2O)[C@@H](O)[C@H](O)[C@H]1O (some centres undefined) here.
Return: 0.693% (inactive)

Enquiry: Supply recorded max response for O=C1CCC=CC1(O)C(=O)OCc1ccccc1O[C@@H]1O[C@H](CO)[C@@H](O)[C@H](O)[C@H]1O (some centres undefined) here.
Return: -24.1% (inactive)

Enquiry: Supply recorded max response for CC1(C)CC[C@]2(C(=O)O)CC[C@]3(C)C(=CCC4[C@@]5(C)CC[C@H](O[C@@H]6O[C@H](CO)[C@@H](O)[C@H](O)[C@H]6O[C@@H]6O[C@H](CO)[C@@H](O)[C@H](O)[C@H]6O)[C@@](C)(CO)C5CC[C@]43C)[C@@H]2C1 (some centres undefined) here.
Return: -6.18% (inactive)

Enquiry: Supply recorded max response for CC(O)(CC(=O)O)CC(=O)OCc1ccc(O[C@@H]2O[C@H](CO)[C@@H](O)[C@H](O)[C@H]2O)cc1 (some centres undefined) here.
Return: -1.35% (inactive)

Enquiry: Supply recorded max response for Cc1c(F)cc(C(=O)NC2CC2)cc1-c1c(F)cn2c(C(C)(C)C)nnc2c1F here.
Return: -22.1% (inactive)

Value source: PubChem BioAssay (NCATS)
